Attribution: patent US20260085082A1

Target: LSD1 (Homo sapiens, UniProt O60341)
Would you kindly list IC50 for each of these molecules?

Field: example entries. Status: answers known.
Return IC50 (reported value) for this molecule: COc1ccc(-n2nc(NC(=O)[C@@H]3CCNC3)cc2-c2ccc(C#N)c(F)c2)cc1 [Example 94, 2,2,2-trifluoroacetate]
< 500 nM

Return IC50 (reported value) for this molecule: COc1ccc(-n2nc(C(=O)NC3CCNC3)cc2-c2ccc(C#N)c(F)c2)cc1 (stereo not drawn)
500 to 1000 nM

Return IC50 (reported value) for this molecule: COc1ccc(-n2nc(-c3ccc(C#N)cc3)cc2C(=O)NC2CCCNC2)cc1 (stereo not drawn) [Example 5, 2,2,2-trifluoroacetate]
1000 to 10000 nM

Return IC50 (reported value) for this molecule: Cn1ncc2cc(-n3nc(C(=O)N4CCC[C@@H](N)C4)cc3-c3ccc(C#N)c(F)c3)ccc21 [Example 43, 2,2,2-trifluoroacetate]
< 500 nM

Return IC50 (reported value) for this molecule: CC1(O)CCN(c2ccc(-n3nc(C(=O)N4CCC[C@@H](N)C4)cc3-c3ccc(C#N)c(F)c3)cc2)CC1 [Example 47, 2,2,2-trifluoroacetate]
< 500 nM

Need IC50 for each of these molecules.
1. Cc1cc(CCn2nc(C(=O)N3CCC[C@@H](N)C3)cc2-c2ccc(C#N)c(F)c2)on1
2. Cc1ccc(-n2nc(C(=O)N3CCC(CN)CC3)cc2-c2ccc(C#N)c(F)c2)cc1
3. N#Cc1ccc(-c2cc(C(=O)N3CCC[C@@H](N)C3)nn2-c2ccc(N3CCC(C#N)CC3)cc2)cc1F [Example 48, 2,2,2-trifluoroacetate]
4. COC1CCN(c2ccc(-n3nc(C(=O)N4CCC[C@H](N)C4)cc3-c3ccc(C#N)c(F)c3)cc2)CC1 [Example 63, 2,2,2-trifluoroacetate]

> 10000 nM
< 500 nM
< 500 nM
< 500 nM

---

Biological target: LSD1 (Homo sapiens)
pIC50: −log10 of the molar value.
Would you kindly list pIC50 for each of these compounds?

Return pIC50 (reported value) for this compound: COc1ccc(-n2nc(NC(=O)[C@@H]3CCC[C@@H](N)C3)cc2-c2ccc(C#N)c(F)c2)cc1 [Example 89, 2,2,2-trifluoroacetate]
> 6.30

Return pIC50 (reported value) for this compound: CN1CCN(c2ccc(-n3nc(C(=O)N4CCC[C@@H](N)C4)cc3-c3ccc(C#N)c(F)c3)nc2)CC1 [Example 54, 2,2,2-trifluoroacetate]
5.00 to 6.00

Return pIC50 (reported value) for this compound: Cn1cc(-c2ccc(-n3nc(C(=O)N4CCC[C@H](N)C4)cc3-c3ccc(C#N)c(F)c3)cc2)cn1 [Example 65, 2,2,2-trifluoroacetate]
> 6.30

Need pIC50 for each of these compounds.
1. COc1ccc(Cn2nc(C(=O)N3CCC[C@@H](N)C3)cc2-c2ccc(C#N)c(F)c2)cc1 [Example 33, 2,2,2-trifluoroacetate]
2. COC1CCN(c2ccc(-n3nc(C(=O)N4CCC[C@@H](N)C4)cc3-c3ccc(C#N)c(F)c3)nc2)CC1 [Example 53, 2,2,2-trifluoroacetate]

> 6.30
5.00 to 6.00
